System: mGlu4 (Homo sapiens)
Sequence (Q14833 33-912): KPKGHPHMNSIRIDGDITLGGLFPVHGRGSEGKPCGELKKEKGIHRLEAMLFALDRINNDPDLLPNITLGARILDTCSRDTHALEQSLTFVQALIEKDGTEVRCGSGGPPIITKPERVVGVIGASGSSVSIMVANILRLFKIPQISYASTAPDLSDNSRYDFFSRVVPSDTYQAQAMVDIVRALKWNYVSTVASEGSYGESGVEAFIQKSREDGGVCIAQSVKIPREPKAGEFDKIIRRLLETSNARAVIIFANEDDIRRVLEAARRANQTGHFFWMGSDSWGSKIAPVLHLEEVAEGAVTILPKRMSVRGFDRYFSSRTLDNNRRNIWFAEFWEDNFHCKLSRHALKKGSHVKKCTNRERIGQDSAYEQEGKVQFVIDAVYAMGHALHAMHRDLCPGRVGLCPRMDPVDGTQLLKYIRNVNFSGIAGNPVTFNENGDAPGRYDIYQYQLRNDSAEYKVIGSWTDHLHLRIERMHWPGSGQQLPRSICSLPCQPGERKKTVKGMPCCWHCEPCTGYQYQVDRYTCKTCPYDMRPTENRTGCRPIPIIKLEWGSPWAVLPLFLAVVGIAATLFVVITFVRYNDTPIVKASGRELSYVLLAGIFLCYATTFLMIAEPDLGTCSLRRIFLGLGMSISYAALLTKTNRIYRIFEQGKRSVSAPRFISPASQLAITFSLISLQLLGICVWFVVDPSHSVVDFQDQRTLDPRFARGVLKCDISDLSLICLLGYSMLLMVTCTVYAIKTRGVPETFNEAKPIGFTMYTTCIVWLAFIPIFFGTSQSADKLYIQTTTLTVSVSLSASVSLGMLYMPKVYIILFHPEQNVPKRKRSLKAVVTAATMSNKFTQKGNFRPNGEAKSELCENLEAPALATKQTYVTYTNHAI
Run description: Activities on metabotropic glutamate receptor 4 (EC50; readout marked IP or by a symbol)
Assay type: cell-based
Assay context: values marked with an image symbol (second readout, not IP); mean ± spread (n)
Structures can show the parent of a compound that is named as a salt.
Property label: EC50 (µM)

Compound: NC(CCP(=O)(O)C(O)c1cccc([N+](=O)[O-])c1)C(=O)O (single isomer, unassigned) [LSP3-1098-II, hydrochloride]
System: mGlu4 (Homo sapiens)
EC50, µM: 0.9
//
Compound: Cl.N[C@@H](CCP(=O)(O)C(O)c1ccc(O)c([N+](=O)[O-])c1)C(=O)O (single isomer, unassigned) [LSP3-2074-II, hydrochloride]
System: mGlu4 (Homo sapiens)
EC50, µM: 4.5
//
Compound: CCOc1cc(C(O)P(=O)(O)CC[C@H](N)C(=O)O)cc([N+](=O)[O-])c1O (single isomer, unassigned) [LSP3-1143-II, hydrochloride]
System: mGlu4 (Homo sapiens)
EC50, µM: 6.4
//
Compound: NC(CCP(=O)(O)C(O)c1cccc([N+](=O)[O-])c1)C(=O)O (single isomer, unassigned) [LSP3-1098-I, hydrochloride]
System: mGlu4 (Homo sapiens)
EC50, µM: 1
//
Compound: COc1ccc(C(O)P(=O)(O)CC[C@H](N)C(=O)O)cc1[N+](=O)[O-] (single isomer, unassigned) [LSP2-6146-II, hydrochloride]
System: mGlu4 (Homo sapiens)
EC50, µM: 1.7
//
Compound: CCOc1cc(C(O)P(=O)(O)CC[C@H](N)C(=O)O)cc([N+](=O)[O-])c1O (mixture of isomers) [LSP3-1145]
System: mGlu4 (Homo sapiens)
EC50, µM: 8.5

P: COc1cc(C(O)P(=O)(O)CC[C@H](N)C(=O)O)cc([N+](=O)[O-])c1O (single isomer, unassigned) [LSP3-1101-I, hydrochloride]
Q: COc1cc(C(O)P(=O)(O)CC[C@H](N)C(=O)O)cc([N+](=O)[O-])c1O (single isomer, unassigned) [LSP3-1101-II, hydrochloride]
Enquiry: // select label with min value of measured EC50 from [ P , Q ] // caller expects the label of the chosen entry
Return: P
